Molecular target: human M1 receptor (hCHRM1) (Homo sapiens, UniProt P11229)
Construct: expressed in transfected cells; host or cells: CHO-K1
Sequence (P11229 1-460): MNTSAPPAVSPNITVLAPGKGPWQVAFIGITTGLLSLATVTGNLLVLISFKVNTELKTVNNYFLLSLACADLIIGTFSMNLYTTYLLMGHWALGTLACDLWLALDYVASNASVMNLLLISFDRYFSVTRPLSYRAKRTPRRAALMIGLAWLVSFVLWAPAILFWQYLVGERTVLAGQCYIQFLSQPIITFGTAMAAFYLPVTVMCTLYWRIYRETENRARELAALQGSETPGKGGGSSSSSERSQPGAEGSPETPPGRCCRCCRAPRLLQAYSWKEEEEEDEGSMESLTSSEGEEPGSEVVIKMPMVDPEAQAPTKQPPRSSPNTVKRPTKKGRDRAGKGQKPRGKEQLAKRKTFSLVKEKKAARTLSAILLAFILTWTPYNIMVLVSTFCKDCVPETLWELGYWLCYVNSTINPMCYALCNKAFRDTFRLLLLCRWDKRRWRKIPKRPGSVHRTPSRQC
Test: Measurement of cholinergic muscarinic M1 receptor positive allosteric modulator (M1PAM) activity, calcium fluorescence (FLIPRtetra)
Format: cell-based
Conditions: test compound 10 μM with acetylcholine at EC20 (final 0.6 nM); CHO-K1 cells expressing hCHRM1; 100% = acetylcholine 1 μM, 0% = DMSO
Readout Kind: activity (%) at 10 μM
Output spec: scalar in %, unitless text.

activity (%) at 10 μM in this record for `CNC(=O)c1cn(Cc2ccc(OC)cc2)c2c(F)ccc(F)c2c1=O` : 71

activity (%) at 10 μM in this record for COc1ccc(Cn2cc(C(=O)N[C@H]3CCOC[C@@H]3O)c(=O)c3c(F)ccc(F)c32)cc1 (racemic) : 98

activity (%) at 10 μM in this record for O=C(N[C@H]1CCCC[C@@H]1O)c1cn(Cc2ccc(-n3cccn3)cc2)c2c(F)cccc2c1=O (racemic) : 92

activity (%) at 10 μM in this record for COc1ccc(Cn2cc(C(=O)NC3CCCCC3CO)c(=O)c3c(F)ccc(F)c32)cc1 (racemic) : 96

activity (%) at 10 μM in this record for COc1ccc(Cn2nc(C(=O)N[C@H]3CCOC[C@@H]3O)c(=O)c3ccccc32)cc1 (racemic) : 97

activity (%) at 10 μM in this record for `COc1ccc(Cn2cc(C(=O)NN3CCCCC3)c(=O)c3c(F)ccc(F)c32)cc1` : 97

activity (%) at 10 μM in this record for `COc1ccc(Cn2cc(C(=O)NC3CC3)c(=O)c3c(F)ccc(F)c32)cc1` : 100

activity (%) at 10 μM in this record for `COc1ccc(Cn2nc(C(=O)N[C@H]3CCCC[C@@H]3O)c(=O)c3ccccc32)cc1` : 97

activity (%) at 10 μM in this record for `NC(=O)c1ccc(Cn2nc(C(N)=O)c(=O)c3ccccc32)cc1` : 96

activity (%) at 10 μM in this record for `COc1ccc(Cn2cc(C(=O)NCCO)c(=O)c3c(F)ccc(F)c32)cc1` : 69

activity (%) at 10 μM in this record for O=C(N[C@H]1CCCC[C@@H]1O)c1cn(Cc2ccc(-c3ccn[nH]3)cc2)c2ccccc2c1=O (racemic) : 90

activity (%) at 10 μM in this record for `COc1ccc(Cn2nc(C(=O)N[C@@H]3CCCC[C@H]3O)c(=O)c3ccccc32)cc1` : 87

activity (%) at 10 μM in this record for Cc1nn(C)cc1-c1ccc(Cn2cc(C(=O)N[C@H]3CCC[C@@H]3O)c(=O)c3ccccc32)cc1 (racemic) : 95

activity (%) at 10 μM in this record for `COc1ccc(Cn2cc(C(N)=O)c(=O)c3c(F)ccc(F)c32)cc1` : 90

activity (%) at 10 μM in this record for NC(=O)c1ccc(Cn2cc(C(=O)N[C@H]3CCCC[C@@H]3F)c(=O)c3ccccc32)cc1 (racemic) : 101

activity (%) at 10 μM in this record for NC(=O)c1ccc(Cn2cc(C(=O)N[C@H]3CCCC[C@@H]3O)c(=O)c3ccccc32)cc1 [Example 78] : 86

activity (%) at 10 μM in this record for COc1ccc(Cn2cc(C(=O)N[C@H]3CCCC[C@@H]3O)c(=O)c3c(F)ccc(F)c32)cc1 [Example 27] : 102

activity (%) at 10 μM in this record for COc1ccc(Cn2cc(C(=O)N[C@H]3CC(F)(F)CC[C@@H]3O)c(=O)c3c(F)ccc(F)c32)cc1 (racemic) : 85

activity (%) at 10 μM in this record for COc1ccc(Cn2cc(C(=O)N[C@H]3CCCC[C@@H]3O)c(=O)c3c(F)ccc(F)c32)cc1 (racemic) [Example 10] : 103

activity (%) at 10 μM in this record for `COCCNC(=O)c1cn(Cc2ccc(OC)cc2)c2c(F)ccc(F)c2c1=O` : 72

activity (%) at 10 μM in this record for O=C(N[C@H]1CCC[C@@H]1O)c1cn(Cc2ccc(-n3cccn3)cc2)c2c(F)cccc2c1=O (racemic) : 104

activity (%) at 10 μM in this record for Cc1cc(-c2ccc(Cn3cc(C(=O)N[C@H]4CCC[C@@H]4O)c(=O)c4ccccc43)cc2)ccn1 (racemic) : 95

activity (%) at 10 μM in this record for NC(=O)c1ccc(Cn2nc(C(=O)N[C@H]3CCCC[C@@H]3O)c(=O)c3ccccc32)cc1 (racemic) : 99

activity (%) at 10 μM in this record for COc1ccc(Cn2cc(C(=O)N[C@H]3CCC[C@@H]3O)c(=O)c3c(F)ccc(F)c32)cc1 (racemic) : 98

activity (%) at 10 μM in this record for `COc1ccc(Cn2cc(C(=O)NC3CCCCC3)c(=O)c3c(F)ccc(F)c32)cc1` : 96

activity (%) at 10 μM in this record for `COc1ccc(Cn2cc(C(=O)NN)c(=O)c3ccccc32)cc1` : 77

activity (%) at 10 μM in this record for CC(F)(F)c1ccc(Cn2cc(C(=O)N[C@H]3CCCC[C@@H]3O)c(=O)c3ccccc32)cc1 (racemic) : 83

activity (%) at 10 μM in this record for NC(=O)c1ccc(Cn2cc(C(=O)N[C@H]3CCCC[C@@H]3O)c(=O)c3ccccc32)cc1 (racemic) [Example 74] : 97

activity (%) at 10 μM in this record for O=C(N[C@H]1CCCC[C@@H]1O)c1nn(Cc2ccc(-n3cccn3)cc2)c2ccccc2c1=O (racemic) : 107

activity (%) at 10 μM in this record for O=C(N[C@H]1CCCC[C@@H]1O)c1cn(Cc2ccc(-n3cccn3)cc2)c2c(F)ccc(F)c2c1=O (racemic) : 93

###

Test: Central migration (Kp value) measurement test
Format: in vivo
Details: male, Jcl ICR, mouse, brain/plasma, iv, 0.2 mg/kg; mice, 0.2 mg/1 mL/kg, sampling time 0.5 hr; ratio of intracerebral (μg/g) to plasma (μg/mL) concentration
Readout Kind: Kp at 0.5 h

Kp at 0.5 h in this record for COc1ccc(Cn2cc(C(=O)N[C@H]3CCCC[C@@H]3O)c(=O)c3c(F)ccc(F)c32)cc1 (racemic) : 0.33

###

Experiment: Central migration (Kp value) measurement test
Type: in vivo
Settings: male, Jcl ICR, mouse, brain/plasma, iv, 0.2 mg/kg; mice, 0.2 mg/1 mL/kg, sampling time 0.25 hr; ratio of intracerebral (μg/g) to plasma (μg/mL) concentration
Readout Kind: Kp at 0.25 h
In your answer, state the number alone without any accompanying words.

Kp at 0.25 h in this record for COc1ccc(Cn2cc(C(=O)N[C@H]3CCOC[C@@H]3O)c(=O)c3c(F)ccc(F)c32)cc1 (racemic) [Example 6] : 0.1

###

Assign EC50 to each entry below.
Target: human M1 receptor (hCHRM1) (Homo sapiens)
Construct: expressed in transfected cells; host or cells: CHO-K1
Sequence (P11229 1-460): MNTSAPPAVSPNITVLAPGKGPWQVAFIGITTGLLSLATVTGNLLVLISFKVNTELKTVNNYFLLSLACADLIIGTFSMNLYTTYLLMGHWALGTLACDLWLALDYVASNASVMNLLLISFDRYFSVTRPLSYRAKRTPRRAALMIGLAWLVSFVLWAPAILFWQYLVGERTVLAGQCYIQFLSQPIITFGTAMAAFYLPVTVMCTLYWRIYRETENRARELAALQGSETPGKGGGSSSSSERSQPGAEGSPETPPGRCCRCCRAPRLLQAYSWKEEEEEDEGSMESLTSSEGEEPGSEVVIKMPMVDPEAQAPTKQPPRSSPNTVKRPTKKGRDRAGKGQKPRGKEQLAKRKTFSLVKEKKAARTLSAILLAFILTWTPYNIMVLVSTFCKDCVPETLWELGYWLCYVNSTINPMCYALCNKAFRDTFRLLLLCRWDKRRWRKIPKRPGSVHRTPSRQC
Assay: Measurement of cholinergic muscarinic M1 receptor positive allosteric modulator (M1PAM) activity, calcium fluorescence (FLIPRtetra)
Assay type: cell-based

Recorded EC50 for O=C(N[C@H]1CCCC[C@@H]1O)c1cn(Cc2ccc(-n3cccn3)cc2)c2c(F)ccc(F)c2c1=O (racemic) [Example 3] on human M1 receptor (hCHRM1) (Homo sapiens) was 8.7 nM

Recorded EC50 for Cc1cc(-c2ccc(Cn3cc(C(=O)N[C@H]4CCC[C@@H]4O)c(=O)c4ccccc43)cc2)ccn1 (racemic) [Example 93] on human M1 receptor (hCHRM1) (Homo sapiens) was 12 nM

Recorded EC50 for O=C(N[C@H]1CCCC[C@@H]1O)c1cn(Cc2ccc(-n3cccn3)cc2)c2c(F)cccc2c1=O (racemic) [Example 80] on human M1 receptor (hCHRM1) (Homo sapiens) was 21 nM

Recorded EC50 for COc1ccc(Cn2cc(C(=O)N[C@H]3CCOC[C@@H]3O)c(=O)c3c(F)ccc(F)c32)cc1 (racemic) [Example 6] on human M1 receptor (hCHRM1) (Homo sapiens) was 16 nM

Recorded EC50 for NC(=O)c1ccc(Cn2cc(C(=O)N[C@H]3CCCC[C@@H]3O)c(=O)c3ccccc32)cc1 [Example 78] on human M1 receptor (hCHRM1) (Homo sapiens) was 2.2 nM

Recorded EC50 for Cc1nn(C)cc1-c1ccc(Cn2cc(C(=O)N[C@H]3CCC[C@@H]3O)c(=O)c3ccccc32)cc1 (racemic) [Example 94] on human M1 receptor (hCHRM1) (Homo sapiens) was 8.5 nM

Recorded EC50 for COc1ccc(Cn2cc(C(=O)N[C@H]3CCCC[C@@H]3O)c(=O)c3c(F)ccc(F)c32)cc1 (racemic) [Example 10] on human M1 receptor (hCHRM1) (Homo sapiens) was 55 nM

Recorded EC50 for O=C(N[C@H]1CCC[C@@H]1O)c1cn(Cc2ccc(-n3cccn3)cc2)c2c(F)cccc2c1=O (racemic) [Example 92] on human M1 receptor (hCHRM1) (Homo sapiens) was 55 nM

Recorded EC50 for COc1ccc(Cn2cc(C(=O)N[C@H]3CCCC[C@@H]3O)c(=O)c3c(F)ccc(F)c32)cc1 [Example 27] on human M1 receptor (hCHRM1) (Homo sapiens) was 38 nM

Recorded EC50 for COc1ccc(Cn2cc(C(=O)N[C@H]3CC(F)(F)CC[C@@H]3O)c(=O)c3c(F)ccc(F)c32)cc1 (racemic) [Example 84] on human M1 receptor (hCHRM1) (Homo sapiens) was 91 nM

Recorded EC50 for O=C(N[C@H]1CCCC[C@@H]1O)c1cn(Cc2ccc(-c3ccn[nH]3)cc2)c2ccccc2c1=O (racemic) [Example 85] on human M1 receptor (hCHRM1) (Homo sapiens) was 4.7 nM

Recorded EC50 for NC(=O)c1ccc(Cn2cc(C(=O)N[C@H]3CCCC[C@@H]3F)c(=O)c3ccccc32)cc1 (racemic) [Example 88] on human M1 receptor (hCHRM1) (Homo sapiens) was 12 nM

Recorded EC50 for NC(=O)c1ccc(Cn2cc(C(=O)N[C@H]3CCCC[C@@H]3O)c(=O)c3ccccc32)cc1 (racemic) [Example 74] on human M1 receptor (hCHRM1) (Homo sapiens) was 5.4 nM
